Assignment: determine reported pIC50 for the given compounds.
pIC50: −log10 of the molar value.

Exercise: What value of pIC50 on SARS-CoV-2 PLpro (papain-like protease) (Severe acute respiratory syndrome coronavirus 2) does CC(C)c1cc(C(C)C)c(CC(=O)NS(=O)(=O)Oc2c(C(C)C)cccc2C(C)C)c(C(C)C)c1 [avasimibe] have?
Solution: < 4.70

Exercise: Return pIC50 measured with SARS-CoV-2 PLpro (papain-like protease) (Severe acute respiratory syndrome coronavirus 2) given this compound: CCOc1nc2cccc(C(=O)O)c2n1Cc1ccc(-c2ccccc2-c2nnn[nH]2)cc1 [candesartan]
Solution: < 4.70
